Target: T1, human collagen type I, acid soluble, extracted from placenta (Sigma C7774) (human, UniProt P02452 162-1218; P08123 80-1119)
T1 construct: tissue extract, gelled and dried in wells; also called dried human collagen; h-Collagen
T1 sequence (P02452 162-1218 limits assumed, chain 1 of 2): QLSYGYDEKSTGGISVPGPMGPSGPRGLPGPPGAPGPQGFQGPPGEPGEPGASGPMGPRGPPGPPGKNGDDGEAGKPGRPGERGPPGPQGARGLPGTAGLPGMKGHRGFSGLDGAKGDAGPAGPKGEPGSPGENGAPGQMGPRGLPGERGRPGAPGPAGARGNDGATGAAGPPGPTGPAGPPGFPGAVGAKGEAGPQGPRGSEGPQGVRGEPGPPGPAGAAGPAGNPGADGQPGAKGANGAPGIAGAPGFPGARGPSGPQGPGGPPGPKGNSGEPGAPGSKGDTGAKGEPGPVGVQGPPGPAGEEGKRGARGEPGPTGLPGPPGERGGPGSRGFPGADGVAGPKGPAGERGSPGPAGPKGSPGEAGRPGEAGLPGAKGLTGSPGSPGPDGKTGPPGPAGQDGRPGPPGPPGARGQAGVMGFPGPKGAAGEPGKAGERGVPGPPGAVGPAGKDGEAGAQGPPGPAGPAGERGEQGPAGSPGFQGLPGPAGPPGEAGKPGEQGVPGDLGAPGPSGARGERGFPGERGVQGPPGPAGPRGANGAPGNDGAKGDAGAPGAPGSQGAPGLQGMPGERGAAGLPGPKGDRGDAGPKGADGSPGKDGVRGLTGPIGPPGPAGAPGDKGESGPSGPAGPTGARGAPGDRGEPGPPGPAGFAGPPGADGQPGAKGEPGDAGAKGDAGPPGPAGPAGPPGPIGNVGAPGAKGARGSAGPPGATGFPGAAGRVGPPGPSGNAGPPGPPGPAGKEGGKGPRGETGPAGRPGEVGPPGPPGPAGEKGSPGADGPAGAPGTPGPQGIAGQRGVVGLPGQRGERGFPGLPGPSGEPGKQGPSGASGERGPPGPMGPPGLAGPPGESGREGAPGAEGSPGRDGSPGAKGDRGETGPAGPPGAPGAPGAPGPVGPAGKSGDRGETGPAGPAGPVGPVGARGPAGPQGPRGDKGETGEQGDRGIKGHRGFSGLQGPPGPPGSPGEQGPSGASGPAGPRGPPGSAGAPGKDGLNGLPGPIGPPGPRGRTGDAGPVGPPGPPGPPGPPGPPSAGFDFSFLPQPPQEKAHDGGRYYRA
T1 sequence (P08123 80-1119 limits assumed, chain 2 of 2): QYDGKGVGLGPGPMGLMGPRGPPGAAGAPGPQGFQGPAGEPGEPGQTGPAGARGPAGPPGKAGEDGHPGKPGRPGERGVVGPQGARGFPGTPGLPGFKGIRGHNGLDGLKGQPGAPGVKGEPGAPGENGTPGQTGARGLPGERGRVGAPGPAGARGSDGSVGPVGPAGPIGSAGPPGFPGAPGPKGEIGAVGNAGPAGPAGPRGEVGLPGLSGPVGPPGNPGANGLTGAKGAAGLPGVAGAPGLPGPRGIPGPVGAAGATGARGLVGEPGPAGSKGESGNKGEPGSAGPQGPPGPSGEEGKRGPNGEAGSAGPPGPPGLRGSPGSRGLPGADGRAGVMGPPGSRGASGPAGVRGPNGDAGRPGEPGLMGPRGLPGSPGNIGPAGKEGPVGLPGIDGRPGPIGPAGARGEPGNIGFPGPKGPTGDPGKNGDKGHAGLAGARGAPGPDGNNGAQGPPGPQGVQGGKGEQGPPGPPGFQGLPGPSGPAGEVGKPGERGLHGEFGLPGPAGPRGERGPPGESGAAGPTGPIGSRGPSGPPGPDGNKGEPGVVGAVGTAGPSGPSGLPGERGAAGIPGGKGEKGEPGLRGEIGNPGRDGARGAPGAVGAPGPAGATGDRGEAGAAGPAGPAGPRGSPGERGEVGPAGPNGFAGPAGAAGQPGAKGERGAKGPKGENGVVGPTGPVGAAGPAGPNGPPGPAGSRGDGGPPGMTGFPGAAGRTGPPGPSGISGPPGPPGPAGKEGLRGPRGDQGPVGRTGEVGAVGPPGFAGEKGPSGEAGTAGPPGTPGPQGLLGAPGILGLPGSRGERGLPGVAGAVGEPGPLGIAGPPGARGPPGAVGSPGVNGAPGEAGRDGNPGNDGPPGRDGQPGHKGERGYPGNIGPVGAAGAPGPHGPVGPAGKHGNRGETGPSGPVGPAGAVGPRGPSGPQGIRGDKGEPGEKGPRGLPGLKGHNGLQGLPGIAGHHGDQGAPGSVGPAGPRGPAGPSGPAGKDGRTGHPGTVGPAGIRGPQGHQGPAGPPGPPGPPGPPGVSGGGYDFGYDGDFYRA
Test: dried collagen assay
Bridge positions count the residues as written; N and C are the ends. Square brackets hold non-standard residues; d marks the D form. Ends that are not written are not given here.
Outcome: 1 for % bound of at least 10%; 0 for anything lower.

Task item: Determine whether this binder has % bound no lower than 10%: PWTCSGDEYAWHCNY[dE] (disulfide 4-13 (inferred), cyclic, disulfide) [SEQ ID NO 121]
Reply: 1

Task item: API: above_or_equal(metric=% bound, cutoff=10%) for item YHACYQAGCW[dI]W (disulfide 4-9 (inferred); not fully specified (C-terminus); printed as YHACYQAGCWiW, cyclic, disulfide) [SEQ ID NO 161]
Reply: 0

Task item: Given GQATCSGDEYTWHCNYE (disulfide 5-14 (inferred), cyclic, disulfide) [SEQ ID NO 139] , state whether its % bound is at least 10%.
Reply: 0

Task item: I'd appreciate it if you could say whether GQWTCSGDAYTWHCAYE (disulfide 5-14 (inferred), cyclic, disulfide) [SEQ ID NO 128] has % bound at least equal to 10%.
Reply: 1

Task item: Given the entry RWTCDLQRGDWQCSTI (disulfide 4-13 (inferred), cyclic, disulfide) [SEQ ID NO 57] , answer whether its % bound meets or surpasses 10%.
Reply: 1

Task item: Decide: is the reported value of % bound for GQWTCSGDEYTWHCNY (disulfide 5-14 (inferred), cyclic, disulfide) [SEQ ID NO 123] equal to or greater than 10%?
Reply: 1

Task item: I'd appreciate it if you could say whether TWMCVDPPLWRCWVQ (disulfide 4-12 (inferred), cyclic, disulfide) [SEQ ID NO 4] has % bound at least equal to 10%.
Reply: 1

Task item: Could you verify whether the entry DWTCSGDEYTWYCNYE (disulfide 4-13 (inferred), cyclic, disulfide) [SEQ ID NO 18] shows % bound of no less than 10%?
Reply: 1

Task item: Is it the case that DWTCS[dY]DEYTWHCNYE (disulfide 4-13 (inferred), cyclic, disulfide) [SEQ ID NO 182] has % bound reaching or exceeding 10%?
Reply: 1

Task item: Please tell me: is the binder AWSCWIVEGRWNCSDI (disulfide 4-13 (inferred), cyclic, disulfide) [SEQ ID NO 48] at or over 10% in terms of % bound?
Reply: 1

Task item: Assess whether reported % bound for TWQCSGNQKWSCEWF (disulfide 4-12 (inferred), cyclic, disulfide) [SEQ ID NO 6] sits at 10% or higher.
Reply: 1

Task item: Is reported % bound greater than or equal to 10% here: YAACYQAGCWIW (disulfide 4-9 (inferred), cyclic, disulfide) [SEQ ID NO 132]
Reply: 1

Task item: Kindly determine if % bound recorded for YHACYQAACWIW (disulfide 4-9 (inferred), cyclic, disulfide) [SEQ ID NO 135] is above or exactly 10%.
Reply: 1

Task item: Quick check, % bound >= 10%? DWTCSGDHLTWHCNYG (disulfide 4-13 (inferred), cyclic, disulfide) [SEQ ID NO 116]
Reply: 1

Task item: Is % bound at least 10%? Consider WTDCQWMDEQIWTCRWD (disulfide 4-14 (inferred), cyclic, disulfide) [SEQ ID NO 95]
Reply: 0

Task item: Quick check, % bound >= 10%? HWTCDQAKGGAWSCSST (disulfide 4-14 (inferred), cyclic, disulfide) [SEQ ID NO 87]
Reply: 0

Task item: Test whether the binder GQWTCSGDEYTWHCNYE (disulfide 5-14 (inferred), cyclic, disulfide) [SEQ ID NO 122] records % bound of 10% or higher.
Reply: 1

Task item: Has WWGCRQGTGEHWSHCMWF (disulfide 4-15 (inferred), cyclic, disulfide) [SEQ ID NO 100] a recorded % bound greater than or equal to 10%?
Reply: 1

Task item: I'd appreciate it if you could say whether NWYCSQALDNWSCKLR (disulfide 4-13 (inferred), cyclic, disulfide) [SEQ ID NO 63] has % bound at least equal to 10%.
Reply: 0

Task item: // inclusive: % bound at least 10%? input: GAWTCSGDEYTWHCNYE (disulfide 5-14 (inferred), cyclic, disulfide) [SEQ ID NO 129]
Reply: 1

Task item: Does % bound meet or surpass 10% for WRCDGDAHDWHCDWF (disulfide 3-12 (inferred), cyclic, disulfide) [SEQ ID NO 26] ?
Reply: 1
